target: glutathione-S-transferase (GST) tagged LXRbeta LBD (ligand binding domain) (Homo sapiens, UniProt P55055); construct: purchased Invitrogen pv4658; test: LanthaScreen TR-FRET Liver X Receptor Coactivator Assay, LXR beta; format: biochemical; conditions: LXR beta IP, potency (Inflection Point), compound-induced co-activator recruitment, TR-FRET
Sequence (P55055 222-460 limits assumed): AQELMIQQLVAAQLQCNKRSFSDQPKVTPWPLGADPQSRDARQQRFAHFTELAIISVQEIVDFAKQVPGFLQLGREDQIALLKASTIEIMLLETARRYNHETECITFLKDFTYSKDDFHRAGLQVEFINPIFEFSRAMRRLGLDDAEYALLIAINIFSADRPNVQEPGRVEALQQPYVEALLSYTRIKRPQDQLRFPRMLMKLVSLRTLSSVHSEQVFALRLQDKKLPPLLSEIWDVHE
measured.parameter: log10(EC50) (log10 of the value in nM)
All values: log10 EC50 [nM].

>>> measured_value("CNC(=O)c1ccc(OCC[C@@H]2C[C@@H]2C2CCN(C(=O)[C@](O)(c3cc(F)cc(F)c3)C(F)(F)F)CC2)cc1Cl (single isomer, unassigned)")
0.30
>>> measured_value("CN(C)C(=O)c1ccc(OCCCCC2CCN(S(=O)(=O)c3ccccc3C(F)(F)F)CC2)nc1Cl")
1.56
>>> measured_value("COc1cccc([C@@](O)(C(=O)N2CCC(CC(C)CC(F)(F)Oc3ccc(C(=O)N(C)C)c(Cl)c3)CC2)C(F)(F)F)c1 (single isomer, unassigned)")
1.81

[Q] Supply measured log10(EC50) of COc1ccccc1[C@@](O)(C(=O)N1CCC2(CC1)C[C@@H]2CCCOc1ccc(C(=O)N(C)C)c(Cl)c1)C(F)(F)F (single isomer, unassigned) in your reply.
[A] 1.00

[Q] Supply measured log10(EC50) of COc1cccc([C@](O)(C(=O)N2CCC(C[C@H]3C[C@@H](Oc4ccc(C(=O)N(C)C)c(Cl)c4)C3)CC2)C(F)F)c1 (single isomer, unassigned) in your reply.
[A] 1.51

[Q] Supply measured log10(EC50) of CN(C)C(=O)c1ccc(OCCC2CC23CCN(C(=O)C2(c4cncnc4)CCC2)CC3)cc1Cl (single isomer, unassigned) in your reply.
[A] 2.63

[Q] Supply measured log10(EC50) of CN(C)C(=O)c1ccc(OCCCCC2CCN(C(=O)C(O)(c3cccc(Cl)c3)C(F)(F)F)CC2)cc1Cl (single isomer, unassigned) in your reply.
[A] 0.78

[Q] Supply measured log10(EC50) of CN(C)C(=O)c1ccc(OCCC2CC23CCN(C(=O)C(C)(C)c2cccc(Br)n2)CC3)cc1Cl (single isomer, unassigned) in your reply.
[A] 1.67

[Q] Supply measured log10(EC50) of CC(C)[C@@](O)(C(=O)N1CCC2(CC1)C[C@H]2CCOc1ccc(C(=O)N(C)C)c(Cl)c1)C(F)(F)F (single isomer, unassigned) in your reply.
[A] 1.79

[Q] Supply measured log10(EC50) of CN(C(=O)c1ccc(OCCCCC2CCN(C(=O)[C@](O)(c3ccccc3)C(F)(F)F)CC2)cc1Cl)C1COC1 (single isomer, unassigned) in your reply.
[A] 1.34

[Q] Supply measured log10(EC50) of CN(C)C(=O)c1ccc(OCCCC2CC3(CCN(C(=O)C(O)(c4ccccc4)C(F)(F)F)CC3)C2)cc1Cl (single isomer, unassigned) in your reply.
[A] 1.84

----------
# Lookup of reported Emax keyed by entry
target: glutathione-S-transferase (GST) tagged LXRbeta LBD (ligand binding domain) (Homo sapiens, UniProt P55055); construct: purchased Invitrogen pv4658; assay: LanthaScreen TR-FRET Liver X Receptor Coactivator Assay, LXR beta; format: biochemical; conditions: read-out: LXR beta actiivty at max dose, efficacy (% Emax) in relation to reference dual agonist T0901317
Lab book: enter the figure in %, no units written.

>>> measured_value("CN(C)C(=O)c1ccc(OCCC2CC23CCN(C(=O)C(C)(C)c2csc(N)n2)CC3)cc1Cl (single isomer, unassigned) [Example 12-10]")
61

[Q] Supply measured Emax of COc1cccc([C@](O)(C(=O)N2CCC(CCCC(C)Oc3ccc(C(=O)N(C)C)c(Cl)c3)CC2)C(F)(F)F)c1 (single isomer, unassigned) [Example 25-2] in your reply.
[A] 84

[Q] Supply measured Emax of CN(C)C(=O)c1ccc(OCCCCC2CCN(C(=O)C(O)(c3ccccn3)C(F)(F)F)CC2)nc1Cl (stereo not drawn) [Example 6-1] in your reply.
[A] 73
